Source listed as the DeepSol protein solubility set.

assay: soluble on expression in E. coli; label from the status in PepcDB or PDB records
REPORTED METRIC: soluble on expression in E. coli

sequence_record=MRAMRLVEIGKPLKLEDIPIPKPKGSQVLIKIEAAGVCHSDVHMRQGRFGNLRIVEDLGVKLPVTLGHEIAGRIEEVGDEVVGYSKGDLVAVNPWEGEGNCYYCRIGEEHLCDSPRWLGINYDGAYAEYVLVPHYKYLYKLRRLSAVEAAPLTCSGVTTYRAVRKASLDPSKTLVVIGAGGGLGTMAIQIAKAVSGATIIGVDVREEALEAAKRAGADYVINASSQDPVSEIRRITQGKGADAVIDLNNSEKTLSIYPYVLAKQGKYVMVGLFGADLKYHAPLITLNEVQFIGSLVGNQSDFLGIMSLAEAGKVKPMVTKTMKLEEANEAIDNLENFKAVGRQVLVP result=soluble
sequence_record=MATANNPPSGLLDPTLCEDRIFYNILEIEPRFLTSDSVFGTFQQSLTSHMRKLLGTWMFSVCQEYNLEPNVVALALNLLDRLLLIKQVSKEHFQKTGSACLLVASKLRSLTPISTSSLCYAAADSFSRQELIDQEKELLEKLAWRTEAVLATDVTSFLLLKLVGGSQHLDFWHHEVNTLITKALVDPLTGSLPASIISAAGCALLVPANVIPQDTHSGGVVPQLASILGCDVSVLQAAVEQILTSVSDFDLRILDSY result=soluble

---

assay: soluble on expression in E. coli; label from the status in PepcDB or PDB records
REPORTED METRIC: soluble on expression in E. coli

sequence_record=MGSSHHHHHHSSGLVPRGSHMRTVTGAILAMNLEVKDFVHRDVEEADRRLREIGARKILLQLPDGLKPYAFDYFTYLSQRYDVILSSSPVYGACDIGPSYLYDRVDAIVQVGHSIMRNVKYPRPVIFIEHYRTVDVEDINTEALKNYRRIGLIYSIQYRPVADRVKRILESKGFEVIIGRSDRRMTYDGQVLGCNFSSVHSVEAEVEAFVIVSTGSFHALGSQISTERPVFLLDLNEMSLRSMEKEADTFIRKRYAQIYRAMDAKRICFLVDTRIGQRREKLARMLMDRARDLGKEAVLAYTDNISDQDIQNMGCDLAVYTGCPRVPIDDQDRFTVPVLTPAEFSMAFFKSSKRYVLDEIVSVDEFTDQ result=soluble
sequence_record=GMLKSKIKEEYVQMDQVDWKPFPAAFSTGGIRWKLLHVSPEMGSWTAIFDCPAGSSFAAHVHVGPGEYFLTKGKMDVRGGKAAGGDTAIAPGYGYESANARHDKTEFPVASEFYMSFLGPLTFVKPDGSPIAVIGWEDAQGAWAA result=soluble

---

test: soluble on expression in E. coli; label from the status in PepcDB or PDB records
REPORTED METRIC: soluble on expression in E. coli

sequence_record=MPHVLVLNASYEPLGVVPLRRALVLVLENKAVCLEESGAFMHSATVTVPAPSVVRLKRFVRVPYRGPVPLTRRALFARDGGRCMYCGGVATSVDHVIPRSRGGQHAWDNVVASCRRCNHVKADRHLFEIGWRLRHKPAPPTGLAWRIIGTGHRDPRWLPYLQPYGADDAMARIDGISAAAALEHHHHHH reported_metric="soluble on expression in E. coli" result="not soluble"
sequence_record=MEKSYMKHELWGDGDFQEDDVWDVLDGYQSPFMISSNHTTKPSFSTQTLLPSEPRMIPERQRTEGMAPMRQQSVPVNVPDWSMVQRKKTKKVVDDENVSPEEYFLRRSRSSSSSSVMEGVGRKLKGRDLSKVRNAILKQTGFLE reported_metric="soluble on expression in E. coli" result=soluble
sequence_record=DYIVEKLNMTKMYDIFSQYLPPQVFINDDSVVHLVRNSIYYKKMRGKHDLVILAGDFQGTTQEAQYELSYQVLQIAKEIGVSMIYTLGGYSIGKIVDKPRVLGAVTDKNLVADLEKNGVVFPKGE reported_metric="soluble on expression in E. coli" result="not soluble"
sequence_record=EDRVGERRIMIDKKEAIEHFRRHPGDGMIKLDLLTTAYNDINLIPPIYQPFLQDKQYFLGEVGQEPNTRMIYMSTFNQNGEEHPIILISLIDEIEITSTE reported_metric="soluble on expression in E. coli" result="not soluble"
sequence_record=MSEKPAESAAAVADSATTTAPQSGKPETALPALIDTQATAETRALYRNLAKLRYKHLLFGHEDSLAYGVHWEGDMDRSDVRDVTGANPAVYGWELGGLELGHTANLDAVNFEKMQHWIKAGYSRGGVITISWHVFNPVSGGNSWDKTPAVHELIPGGARHATLKAYLDTFVAFNEGLADVDAQGNKHYPPIIFRPWHEHNGDWFWWGKGHASEQDYIALWRFTVHYLRDEKKLRNLIYAYSPDRSRIDMANFEAGYLYGYPGDAYVDIIGLDNYWDVGHEANTASADEQKAALTASLKQLVQIARSKGKIAALTETGNNRLTIDNFWTERLLGPISADADASEIAYVMVWRNANLAREKSEQFFAPFPGQATADDFKRFYQSEVVLFEDELPPLYR reported_metric="soluble on expression in E. coli" result=soluble
sequence_record=MAQTLAQTKQISQSHTFDVSQSHHKTPDDTNSHSVIYSTQNLDLWYGENHALQNINLDIYENQITAIIGPSGCGKSTYIKTLNRMVELVPSVKTAGKILYRDQDIFDQKYSKEQLRTNVGMVFQQPNPFPKSIYDNITYGPKIHGIKNKKVLDEIVEKSLRGAAIWDELKDRLHTNAYSLSGGQQQRVCIARCLAIEPEVILMDEPTSALDPISTLRVEELVQELKEKYTIIMVTHNMQQAARVSDKTAFFLNGYVNEYDDTDKIFSNPSNKKTEDYISGRFG reported_metric="soluble on expression in E. coli" result="not soluble"
sequence_record=MSLLMIIDCHGHYTVLPKAHDEWREQQKAAFKAGQPAPPYPEISDDEIRETIEANQLRLIKERGADMTIFSPRASAMAPHVGDQSVAVPWAQACNNLIARVVDLFPETFAGVCMLPQSPEADMTSSIAELERCVNELGFIGCNLNPDPGGGHFKHPPLTDRFWYPFYEKMVELDVPAMIHVSGSCNPAMHATGAYYLAADTIAFMQLLQGNLFADFPTLRFIIPHGGGAVPYHWGRFRGLADMLKQPSLDTLLMNNVFFDTCVYHQPGINLLADVIDNKNILFGSEMVGAVRGIDPTTGHYFDDTKRYIDALDISDQERHAIFEGNTRRVFPRLDAKLKAREGHHHHHH reported_metric="soluble on expression in E. coli" result=soluble
sequence_record=MVQDQIRYDILVQDALRGVIRKVLSEVAKAGLPGSHHFFITFLTNAPGVKISTRLKSRYPEQMTIVLQHQFRDLNVSETAFEVTLSFREVSEKLVIPFHSIQVFYDPVAAFEAAFDLPSNLNSKEGENLENIASTPVILSDTQKKEKKFPKEQISKTNKDSSNNDTKQSADVVSLDSFRKK reported_metric="soluble on expression in E. coli" result="not soluble"
sequence_record=MMKITDEKAEDVNLSTIKVVKRDGRLVTFDDQKIYDALIKAEQKIHDQVTPLTHQKVQSIVADVNREIAERFTNNVKIYEIQNIVEHTLLSNNEYALAEEYIHYRTQRDFERSKATD reported_metric="soluble on expression in E. coli" result="not soluble"
sequence_record=MSRTEGSHEAEQDLTMIVGTYTSGDSKGLYSFRFNEENGTATALSEAEVENPSYLVPSADGKFIYAVSEFSNEQAAANAFAFNKEEGTFRLLNTQKTGGEDPCYIITNGSNVVTANYSGGSISVFPIDKDGSLLPASEVVKFKGSGADKERQEKPHLHCVRITPDGKYLFADDLGTDQIHKFIVNPNAKADNEDVFLKEGSPASYKVEAGSGPRHLTFAPNGSYAYLINELSGTVIAFEYNDGELKEIQTIAADTVGAKGSGDIHISPDGKFLYASNRLKADGLAIFSIHPENGMLTKVGYQLTGIHPRNFIITPNGKYLLVACRDSNVIQVYERDTDTGLLTDIRKDIKVDKPVCIKFVPLEHHHHHH reported_metric="soluble on expression in E. coli" result=soluble
sequence_record=MVIRVYIASSSGSTAIKKKQQDVLGFLEANKIGFEEKDIAANEENRKWMRENVPENSRPATGYPLPPQIFNESQYRGDYDAFFEARENNAVYAFLGLTAPPGSKEAEV reported_metric="soluble on expression in E. coli" result=soluble
sequence_record=MEVLKVASNSNPNKVAGALAGVIREKGKAELQAIGAGAVNQAVKAIAIARGYLAPSGINLVCVPAFAEVQINGETRTAIKFIVFPKD reported_metric="soluble on expression in E. coli" result="not soluble"
sequence_record=SAQKVEAKGGKGGNQWDDGSDHDAVTKIQVAVGGMGIQYIQFDYVKNGQTEQTPLRGIKGSTIPTDPFVINHPEEHLVSIEIWYKPDGLIQGLRFISNKKTSRFIGYDRGTRSFLQVQDKKIIGFHGSAGDNLNSLGAYFAPLTIPLTPAKPLPALGSDDGTAWDDGAYVGVKKVYVGQAQDGISAVKFVYDKSPEEVTGEEHGKSTLLGFEEFVLDYPSEYIIAVEGTYDKIFGSDGSVITMLRFKTNKQTSPPFGLEAGTAFELKEEGHKIVGFHGRADALLHKIGVHVRPVSN reported_metric="soluble on expression in E. coli" result=soluble
